System: Rattus norvegicus
test: Antiinflammatory activity against formalin-induced paw edema in anaesthetized Albino rat acute inflammatory model at 20 mg/kg, po dosed 1 hr before formalin challenge assessed after 1 hr
Format: functional
experimental_readout: Activity (%)

{"compound_smiles": "Cc1c(NC(=O)CSc2nnc(NC(=S)Nc3ccccc3)s2)c(=O)n(-c2ccccc2)n1C", "unit_of_measurement": "%", "measurement": 26}
{"compound_smiles": "Cc1c(NC(=O)/C(C#N)=C2\\SC=C(c3ccc(Cl)cc3)N2c2ccccc2)c(=O)n(-c2ccccc2)n1C", "unit_of_measurement": "%", "measurement": 39}
{"compound_smiles": "Cc1c(NC(=O)c2sc(=S)n(-c3ccccc3)c2N)c(=O)n(-c2ccccc2)n1C", "unit_of_measurement": "%", "measurement": 35}
{"compound_smiles": "Cc1c(NC(=O)C2=C(N)N(c3ccccc3)C(=C(C#N)C#N)S2)c(=O)n(-c2ccccc2)n1C", "unit_of_measurement": "%", "measurement": 26}
{"compound_smiles": "CCOC(=O)/C(C#N)=C1/SC(C(=O)Nc2c(C)n(C)n(-c3ccccc3)c2=O)=C(N)N1c1ccccc1", "unit_of_measurement": "%", "measurement": 30}
{"compound_smiles": "Cc1c(NC(=O)c2sc(=S)n(-c3ccccc3)c2NC(=S)Nc2ccccc2)c(=O)n(-c2ccccc2)n1C", "unit_of_measurement": "%", "measurement": 30}
{"compound_smiles": "CCOC(=O)Nc1nnc(SCC(=O)Nc2c(C)n(C)n(-c3ccccc3)c2=O)s1", "unit_of_measurement": "%", "measurement": 35}
{"compound_smiles": "Cc1c(NC(=O)c2sc(=S)n(-c3ccc(Cl)cc3)c2NC(=O)Nc2ccccc2)c(=O)n(-c2ccccc2)n1C", "unit_of_measurement": "%", "measurement": 26}
